- EXPERIMENT DESCRIPTION: zebrafish embryo lethality (LC50)
- Assay type: in vivo
- REPORTED CONDITIONS: AB, zebrafish, in vivo, zebrafish embryos from 24 hpf, end of 5 days of exposure
QUANTITY KIND: LC50

Q: # query: LC50 of entry NS(=O)(=O)c1ccc(CCNC(=O)OCc2ccc([N+](=O)[O-])o2)cc1 [Compound 4b]
Ans: ~500 µM

Q: Entry under review: Cn1c(COC(=O)NCCc2ccc(S(N)(=O)=O)cc2)cnc1[N+](=O)[O-] [Compound 1b] . Reported LC50?
Ans: ~1400 µM

* * *

- ASSAY SYSTEM: hCA I (Homo sapiens)
- Sequence (P00915 whole entry): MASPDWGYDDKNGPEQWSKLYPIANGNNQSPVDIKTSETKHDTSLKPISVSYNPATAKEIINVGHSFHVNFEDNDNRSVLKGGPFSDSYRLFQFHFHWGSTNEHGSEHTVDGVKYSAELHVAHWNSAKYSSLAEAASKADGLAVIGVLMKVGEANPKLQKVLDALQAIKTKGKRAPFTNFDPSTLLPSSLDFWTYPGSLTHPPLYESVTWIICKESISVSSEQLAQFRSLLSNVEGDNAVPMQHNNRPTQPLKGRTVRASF
- EXPERIMENT DESCRIPTION: stopped flow CO2 hydrase assay, hCA I
- REPORTED CONDITIONS: KI hCA I, mean from 3 different assays
QUANTITY KIND: pKi
Please treat pKi as minus the base-10 logarithm of the molar concentration.

Q: // fetch hCA I (Homo sapiens) pKi for Cc1ncc([N+](=O)[O-])n1CCOC(=O)NCc1ccc(S(N)(=O)=O)cc1
Ans: 8.64

Q: Requested read-out pKi, target or system hCA I (Homo sapiens), entry Cc1ncc([N+](=O)[O-])n1CCOC(=O)NCCc1ccc(S(N)(=O)=O)cc1
Ans: 8.43

Q: Fill in the recorded pKi for this molecule, with hCA I (Homo sapiens) as test system: NS(=O)(=O)c1ccc(CCNC(=O)OCCNC(=O)c2cc([N+](=O)[O-])ccc2N(CCCl)CCCl)cc1
Ans: 7.08

Q: API: value(readout= pKi, system= hCA I (Homo sapiens), query= NS(=O)(=O)c1ccc(CNC(=O)OCCNC(=O)c2cc([N+](=O)[O-])ccc2N(CCCl)CCCl)cc1 )
Ans: 5.66

Q: Query for hCA I (Homo sapiens): what pKi does the record show for Cn1c(COC(=O)NCCc2ccc(S(N)(=O)=O)cc2)cnc1[N+](=O)[O-] ?
Ans: 6.78

* * *

- ASSAY SYSTEM: hCA II (Homo sapiens)
- EXPERIMENT DESCRIPTION: stopped flow CO2 hydrase assay, hCA II
QUANTITY KIND: Ki (nM)
The reply should be a number in nM, with the unit left off.

Q: Quick one: Ki of NS(=O)(=O)c1ccc(CNC(=O)OCCNC(=O)c2cc([N+](=O)[O-])ccc2N(CCCl)CCCl)cc1 [Compound 3c] ?
Ans: 83.7

Q: Could you share which Ki value was measured for NS(=O)(=O)c1ccc(CCNC(=O)OCCNC(=O)c2cc([N+](=O)[O-])ccc2N(CCCl)CCCl)cc1 [Compound 3b] ?
Ans: 3.1

Q: Which Ki reading was recorded for the compound Cc1ncc([N+](=O)[O-])n1CCOC(=O)NCCc1ccc(S(N)(=O)=O)cc1 [Compound 2b] ?
Ans: 4.3

Q: Query (compound): Cn1c(COC(=O)NCCc2ccc(S(N)(=O)=O)cc2)cnc1[N+](=O)[O-] [Compound 1b] ; field requested: Ki
Ans: 30.6

Q: Value lookup for Ki; key = NS(=O)(=O)c1ccc(CCNC(=O)OCc2ccc([N+](=O)[O-])o2)cc1 [Compound 4b]
Ans: 15.5

Q: Data request, read-out Ki, for Cc1ncc([N+](=O)[O-])n1CCOC(=O)NCc1ccc(S(N)(=O)=O)cc1 [Compound 2c]
Ans: 4
